- Test system: RXF 393
- protocol.description: NCI tumour cell line growth inhibition, 48 h
The source made the active and inactive calls. No stated cut-off is given here; in the data, active = GI50 up to about 1.1 µM and inactive = higher.
Pick one and only one: true (1) for active, false (0) for inactive

Worked set:
c1ccc2c(c1)Nc1cccc3c1c-2nc1cc2ccccc2cc13; false (0)
CC(C)/C=C1\CCC(CN(C)C)C1=O (stereo unspecified); true (1)
S=C(S)N1CCN(c2cccc(Cl)c2)CC1; false (0)
NS(=O)(=O)c1ccc(NC(=O)c2ccc3nc4ccccc4c(Nc4ccc(S(N)(=O)=O)cc4)c3c2)cc1; false (0)
COc1cc(C2c3cc4c(cc3[C@@H](Nc3ccc(Oc5ccccc5)cc3)C3COC(=O)[C@H]23)OCO4)cc(OC)c1O (stereo partly specified); false (0)

As a next step, examine the compound that follows.
Fill in: this test's call for `ON(CCc1ccncc1)Cc1ccccc1` is ___
false (0)

----------
- Tested on: SW-620
- protocol.description: NCI tumour cell line growth inhibition, 48 h
Activity calls are given as the source filed them. No stated cut-off is given here; in the data, active = GI50 up to about 1.1 µM and inactive = higher.
Property: GI50; scope: individual compounds

Some compounds with known GI50 results, for comparison:
NC(=O)c1cccc(OCC(O)CO)c1 (stereo not given); > 100 µM (inactive)
COc1cc(CCN)c(OC)c(OC)c1; 36.2 µM (inactive)
CC(C)(C)c1ccc2c(c1)C(O)(c1ccccc1)c1cc(C(C)(C)C)ccc1C2(O)C(F)(F)F (stereo not given); 1.88 µM (inactive)
COC(=O)C12C3C4C5C3(C#N)C1C5(C(=O)OC)C42C(=O)N(C(C)C)C(C)C (stereo not given); > 26.7 µM (inactive)
O=[N+]([O-])C=C(c1ccc(Cl)cc1)c1ccc(Cl)cc1; 16.2 µM (inactive)
COCOC1CCCC[C@@]1(OCCOCCO[C@@]1(c2ccccc2)CCCC[C@H]1OCOC)c1ccccc1 (stereo not given in full); > 100 µM (inactive)

Pending compound:
# GI50 of `CC(=O)Oc1ccc2cc(-c3ccccc3OC(C)=O)c(=O)oc2c1` = 64.6 µM (inactive)

----------
- Tested on: MOLT-4
- protocol.description: NCI tumour cell line growth inhibition, 48 h
The source made the active and inactive calls. Rule as the data show it: active = GI50 up to about 1.1 µM and inactive = higher.
// classify into active, inactive

These solved cases illustrate the format of a correct answer.
CCC(=O)N1C(=O)C(CC)(CC)C(=O)N1C(=O)CC; inactive
C[C@]12CCC(=O)O[C@H]1CCCCO2; inactive
NCCCCN(CCCN)/[N+]([O-])=N\O; inactive
NC(=O)NC1C(C(=O)O)N(Cc2ccccc2)C(=O)N1Cc1ccccc1 (stereo unspecified); inactive
N#CC(c1ccccc1)N(CCc1ccccc1)C(=O)Oc1ccccc1 (stereo unspecified); inactive

From here, focus on the item given below.
Outcome logged for `COC1=C(Cl)C(=O)c2c(O)ccc(O)c2C1=O` in this assay:
active

----------
- Tested on: NCI-H460
- protocol.description: NCI tumour cell line growth inhibition, 48 h
The source made the active and inactive calls. Rule as the data show it: active = GI50 up to about 1.1 µM and inactive = higher.
measured.property: GI50

Example entries begin here.
C[C@]12CCC(=O)O[C@H]1CCCCO2; > 100 µM (inactive)
COc1ccc(-c2nc(O)c3ccccc3n2)c(OC)c1; > 100 µM (inactive)
COc1ccc2c(c1)N1CCc3cc(OC)c(OC)cc3C1C2 (configuration not stated); 52.4 µM (inactive)
Nc1ccn([C@@H]2C[C@H](CO)[C@@H](O)[C@H]2O)c(=O)n1; > 57.7 µM (inactive)

// GI50 value for O=C(O)C1Cc2c([nH]c3ccccc23)C(CCCCO)N1 (configuration not stated) : > 100 µM (inactive)

The molecule `CC[C@@]1(O)C(=O)OCc2c1cc1n(c2=O)Cc2c-1nc1ccccc1c2/C=N/NC(=O)C[N+](C)(C)C` showed GI50 equal to 0.15 µM (active)

The recorded GI50 for `Oc1cccc2c(Br)ccnc12` is 3.57 µM (inactive)

Noted for NC1CCC(c2cc3ccccc3s2)(N2CCCCC2)CC1 (configuration not stated) : its GI50 reads 1.63 µM (inactive)

// `COc1ccc(NC(=O)C2=C(SC)C(=O)N=C2N)cc1` : GI50 value = > 100 µM (inactive)

Briefly, GI50 measured for `O=C(NCCCN(CCCCN(CCCNC(=O)C(F)(F)F)Cc1ccc2ccccc2c1)Cc1ccc2ccccc2c1)C(F)(F)F` : 2.21 µM (inactive)

Kindly note the recorded GI50 for COc1ccc(N[S+]([O-])c2cccc(C)c2)cc1 (configuration not stated) , which is 30 µM (inactive)

// O=C(O)C(Cc1ccccc1)NCc1c(O)ccc2c(-c3ccccc3)cc(=O)oc12 (configuration not stated) : GI50 value = > 100 µM (inactive)

The molecule `CC(C)(C)C1=CC(=C2C=Cc3ccccc3O2)C=C(C(C)(C)C)C1=O` showed GI50 equal to 1.6 µM (inactive)

Looking up `O=C1[C@@H]2C(c3ccncc3)=NO[C@@H]2C(=O)N1c1ccc(Cc2ccc(N3C(=O)[C@H]4C(c5ccncc5)=NO[C@H]4C3=O)cc2)cc1` , I see its GI50 listed as > 100 µM (inactive)

Lab note: O=C1CC2CCN(C(=O)c3ccccc3)CC2CCN1 (configuration not stated) gave GI50 of > 100 µM (inactive)

Summary for this molecule, `CCN(CC)CCNc1ccc2nnn3c4ccccc4c(=O)c1c23` : GI50 is 2.25 µM (inactive)

Notebook: CCCCCCCCCCOCCOCCOCCOCCCCC(O)CCCCCCCC1=C[C@H](C)OC1=O (some centres not stated) , GI50 read as 7.89 µM (inactive)

Record summary for COc1cc2c(c(OC)c1)C1(CC(CC#N)C2)SCCS1 (configuration not stated) : reported GI50 = > 100 µM (inactive)

Reported GI50 of `C/C(=N\Nc1nc2cccnc2s1)c1ccccn1` : 0.0369 µM (active)

GI50 reading for `O=[N+]([O-])c1ccc2[nH]ncc2c1Cl` : 33.1 µM (inactive)

Entry `O=c1oc2c/c(=C\c3ccccn3)c(=O)c3cccc1c3-2` — recorded GI50 = > 100 µM (inactive)

For `Cc1cc(N(CCC#N)CCC#N)ccc1C(/N=N/c1ccccc1)=N\NC(=O)c1ccccc1` the molecule record lists GI50 as 29.3 µM (inactive)
